system: U2OS; assay: Multiplex assay against U2OS; assay type: toxicity, cell-based; details: human, 12 h, 1 µM, compound concentration 1 uM, replicate 2
measured.quantity: Population Pyknosed Nuclei (%)

[[record]]
compound = "O=C1NC(=O)C(c2cnc3ccccn23)=C1c1cn2c3c(cc(F)cc13)CN(C(=O)N1CCCCC1)CC2 [LY-2090314]"
system_name = "U2OS"
result = "9%"

[[record]]
compound = "Cl.Oc1ccc2c3c1O[C@H]1c4[nH]c5c(c4C[C@@]4(O)[C@@H](C2)N(CC2CC2)CC[C@]314)C[C@@]1(O)[C@H]2Cc3ccc(O)c4c3[C@@]1(CCN2CC1CC1)[C@H]5O4"
system_name = "U2OS"
result = "10%"

[[record]]
compound = "Cc1cn(-c2cc(NC(=O)c3ccc(C)c(Nc4nccc(-c5cccnc5)n4)c3)cc(C(F)(F)F)c2)cn1 [NILOTINIB]"
system_name = "U2OS"
result = "11%"

[[record]]
compound = "Cc1ccc(C(=O)Nc2cccc(C(F)(F)F)c2)cc1Nc1nc(-c2cccnc2)nc2c1cnn2C"
system_name = "U2OS"
result = "12%"

[[record]]
compound = "CN(C)C(=O)C(CCN1CCC(O)(c2ccc(Cl)cc2)CC1)(c1ccccc1)c1ccccc1.Cl [LOPERAMIDE HYDROCHLORIDE]"
system_name = "U2OS"
result = "6%"

[[record]]
compound = "C=CCn1c(=O)c2cnc(Nc3ccc(N4CCN(C)CC4)cc3)nc2n1-c1cccc(C(C)(C)O)n1 [ADAVOSERTIB]"
system_name = "U2OS"
result = "21%"

[[record]]
compound = "CCn1cc(-c2ccnc3[nH]c(-c4cccc(CN(C)C)c4)cc23)c(-c2ccc(NC(=O)N(C)C)cc2)n1 [GSK-1070916]"
system_name = "U2OS"
result = "1%"

